The reported numbers originate from ChEMBL document CHEMBL5058577.

Test system: HEK-293T
MEASUREMENT DESCRIPTION: Multiplex assay against HEK293T
Assay type: toxicity, cell-based
SETTINGS: human, 12 h, 10 µM, compound concentration 10 uM, replicate 2
Sorting guide: entries reporting Population Normal (%) beneath 80% go in the TRUE pile, the rest go in the FALSE pile.

1) Cc1c(CC(=O)O)c2cccnc2n1Cc1ccc(S(C)(=O)=O)cc1C(F)(F)F [FEVIPIPRANT] : FALSE
2) Br.CS(=O)(=O)Nc1c(O)ccc2c1CCCC2C1=NCCN1 (stereo not drawn) : FALSE
3) CCCCCC(O)/C=C/[C@H]1C(=O)CC(O)C1C/C=C\CCCC(=O)O (stereo partly drawn) : FALSE
4) CC(C)COc1ccc(CNC(=O)N(Cc2ccc(F)cc2)C2CCN(C)CC2)cc1 [PIMAVANSERIN] : TRUE
5) Cc1sc2c(c1C)C(c1ccc(Cl)cc1)=N[C@@H](CC(=O)NCCCCCCCCNC(=O)COc1cccc3c1C(=O)N(C1CCC(=O)NC1=O)C3=O)c1nnc(C)n1-2 (stereo partly drawn) : TRUE
6) COc1ccccc1N1CCN(C[C@@H](C(=O)NC(C)(C)C)c2ccccc2)CC1.Cl.Cl : FALSE
7) CCC(=O)N1CCN(c2ccc(-n3c(=O)ccc4cnc5ccc(-c6cnc7ccccc7c6)cc5c43)cc2C(F)(F)F)CC1 [TORIN1] : FALSE
8) CC[C@@H](C)Nc1nc(C)nc2c(-c3ccc(OC)nc3C)c(C)nn12 [PEXACERFONT] : FALSE

====

Recorded Population Tubulin-Different-Phenotype (%) values for a group of compounds are listed next.
System: HEK-293T
MEASUREMENT DESCRIPTION: Multiplex assay against HEK293T
Type: toxicity, cell-based
SETTINGS: human, 48 h, 10 µM, compound concentration 10 uM, replicate 2
MEASURED PARAMETER: Population Tubulin-Different-Phenotype (%)

1) N#Cc1cc(F)cc(-c2nc(-c3ccc(F)cn3)no2)c1 : 11
2) Cc1sc2c(c1C)C(c1ccc(Cl)cc1)=N[C@@H](CC(=O)NCCCCCCCCNC(=O)COc1cccc3c1C(=O)N(C1CCC(=O)NC1=O)C3=O)c1nnc(C)n1-2 (some centres undefined) : 31
3) CC(C)COc1ccc(CNC(=O)N(Cc2ccc(F)cc2)C2CCN(C)CC2)cc1 [PIMAVANSERIN] : 64
4) Br.CS(=O)(=O)Nc1c(O)ccc2c1CCCC2C1=NCCN1 (centres undefined) : 11
5) COc1ccccc1N1CCN(C[C@@H](C(=O)NC(C)(C)C)c2ccccc2)CC1.Cl.Cl : 36
6) CCc1cc2cc(NS(=O)(=O)c3ccc(C#N)cc3)ccc2n(CC)c1=O : 23
7) COc1cccc2c1c(NS(=O)(=O)c1ccc(Cl)s1)nn2Cc1cccc(CNC(=O)C(C)(C)O)c1 : 12
8) CC(C)c1noc(N2CCC(COc3ccc(-c4ccc(S(C)(=O)=O)cc4)nc3)CC2)n1 [GSK-1292263] : 18
9) CCCOc1ccc2[nH]cc(C3=CCNCC3)c2n1.Cl : 20

====

Catalogue of molecules with associated Population Hoechst High Intensity Objects (%)
System: Fibroblast
MEASUREMENT DESCRIPTION: Multiplex assay against human fibroblast
Type: toxicity, cell-based
SETTINGS: 24 h, 10 µM, compound concentration 10 uM, replicate 2
MEASURED PARAMETER: Population Hoechst High Intensity Objects (%)

1) CC(C)COc1ccc(CNC(=O)N(Cc2ccc(F)cc2)C2CCN(C)CC2)cc1 : 8
2) CCCOc1ccc2[nH]cc(C3=CCNCC3)c2n1.Cl : 2
3) N#Cc1cc(F)cc(-c2nc(-c3ccc(F)cn3)no2)c1 : 11
4) CC(C)(C)c1cc(NC(=O)Nc2ccc(-c3cn4c(n3)sc3cc(OCCN5CCOCC5)ccc34)cc2)no1 : 4
5) CCc1cc2cc(NS(=O)(=O)c3ccc(C#N)cc3)ccc2n(CC)c1=O : 9

====

System: HEK-293T
MEASUREMENT DESCRIPTION: Multiplex assay against HEK293T
Type: toxicity, cell-based
SETTINGS: human, 24 h, 1 µM, compound concentration 1 uM, replicate 2
// reported Population Pyknosed Nuclei (%) for each item listed
MEASURED PARAMETER: Population Pyknosed Nuclei (%)

1. CCCCC(=O)N(Cc1ccc(-c2ccccc2-c2nnn[nH]2)cc1)[C@H](C(=O)O)C(C)C : 8%
2. O=C(CCCc1ccccc1)Nc1nc2ccccc2c(=O)s1 : 12%
3. N#Cc1cc(F)cc(-c2nc(-c3ccc(F)cn3)no2)c1 : 9%
4. Cc1onc(-c2ccccc2Cl)c1C(=O)N(C)c1ccc(Cl)cc1 : 12%
5. CCCCCC(O)/C=C/[C@H]1C(=O)CC(O)C1C/C=C\CCCC(=O)O (stereo not given in full) : 7%
6. NCCc1cn(S(=O)(=O)c2c(Cl)nc3sccn23)c2ccccc12.O=C(O)C(=O)O : 8%
7. CCc1cc2cc(NS(=O)(=O)c3ccc(C#N)cc3)ccc2n(CC)c1=O : 7%
8. CC(/C=C1\SC(=S)N(CCCC(=O)Nc2ccc(C(=O)O)c(O)c2)C1=O)=C\c1ccccc1 : 8%
9. COc1cccc2c1c(NS(=O)(=O)c1ccc(Cl)s1)nn2Cc1cccc(CNC(=O)C(C)(C)O)c1 : 8%
10. CCCOc1ccc2[nH]cc(C3=CCNCC3)c2n1.Cl : 9%

====

Tested on: Fibroblast
MEASUREMENT DESCRIPTION: Multiplex assay against human fibroblast
Type: toxicity, cell-based
SETTINGS: 24 h, 1 µM, compound concentration 1 uM, replicate 1
Examples of molecules with documented Population Mitotic Cells (%) follow.
MEASURED PARAMETER: Population Mitotic Cells (%)

1) Cl.NCCc1ccc(O)c(O)c1 [DOPAMINE HYDROCHLORIDE] : 44
2) CCc1cc2cc(NS(=O)(=O)c3ccc(C#N)cc3)ccc2n(CC)c1=O : 46
3) CC(/C=C1\SC(=S)N(CCCC(=O)Nc2ccc(C(=O)O)c(O)c2)C1=O)=C\c1ccccc1 : 45
4) COC[C@@H](c1ccc(C(F)(F)F)cc1)N1CCN(C2(C)CCN(C(=O)c3c(C)ncnc3C)CC2)C[C@@H]1C.O=C(O)/C=C\C(=O)O [VICRIVIROC MALEATE] : 33
5) Cc1onc(-c2ccccc2Cl)c1C(=O)N(C)c1ccc(Cl)cc1 : 55
6) Br.CS(=O)(=O)Nc1c(O)ccc2c1CCCC2C1=NCCN1 (stereo not given) : 43
7) N#Cc1c(Oc2cccc(OS(=O)(=O)CCCC(F)(F)F)c2)cccc1C(F)(F)F : 50
8) Cl.N=C(N)NC(=O)Cc1c(Cl)cccc1Cl [GUANFACINE HYDROCHLORIDE] : 41
9) CCCCC1=NC2(CCCC2)C(=O)N1Cc1ccc(-c2ccccc2-c2nnn[nH]2)cc1 : 52
10) Cc1cnc(-c2cc(N3CCN(C(=O)CCS(C)(=O)=O)CC3)ncc2Cl)c(C)c1 : 45
11) CCCCC(=O)N(Cc1ccc(-c2ccccc2-c2nnn[nH]2)cc1)[C@H](C(=O)O)C(C)C : 33
12) Cc1sc2c(c1C)C(c1ccc(Cl)cc1)=N[C@@H](CC(=O)NCCCCCCCCNC(=O)COc1cccc3c1C(=O)N(C1CCC(=O)NC1=O)C3=O)c1nnc(C)n1-2 (stereo not given in full) : 44
13) Cc1cccc(NC(=O)CN2CCC(c3ccccn3)CC2)c1.Cl.Cl : 50
14) CN1CCN(c2cc(-c3ccccc3)nc(N)n2)CC1 : 25
15) CC(=O)Nc1cccc2c1c(Sc1ccc(Cl)cc1)c(C)n2CC(=O)O : 46
16) CC(C)(C)c1cc(NC(=O)Nc2ccc(-c3cn4c(n3)sc3cc(OCCN5CCOCC5)ccc34)cc2)no1 : 41
17) Cc1c(CC(=O)O)c2cccnc2n1Cc1ccc(S(C)(=O)=O)cc1C(F)(F)F : 44
18) CC[C@@H](C)Nc1nc(C)nc2c(-c3ccc(OC)nc3C)c(C)nn12 : 47
19) O=C1[C@H](Cc2ccc(O)cc2)N2C(=O)CCN(C(=O)NCc3ccccc3)[C@H]2CN1Cc1cccc2ccccc12 : 57
20) O=C(NCCN1CCC(n2c(=O)[nH]c3cc(Cl)ccc32)CC1)c1ccc(F)cc1 [HALOPEMIDE] : 41
21) CCCOc1ccc2[nH]cc(C3=CCNCC3)c2n1.Cl : 42
22) COc1ccccc1N1CCN(C[C@@H](C(=O)NC(C)(C)C)c2ccccc2)CC1.Cl.Cl : 50
23) COc1cccc2c1c(NS(=O)(=O)c1ccc(Cl)s1)nn2Cc1cccc(CNC(=O)C(C)(C)O)c1 : 44
24) N#Cc1cc(F)cc(-c2nc(-c3ccc(F)cn3)no2)c1 : 60
25) O=C(CCCc1ccccc1)Nc1nc2ccccc2c(=O)s1 : 50
